Target or system: SirT1 (Homo sapiens, UniProt Q96EB6)
Sequence (Q96EB6 1-747): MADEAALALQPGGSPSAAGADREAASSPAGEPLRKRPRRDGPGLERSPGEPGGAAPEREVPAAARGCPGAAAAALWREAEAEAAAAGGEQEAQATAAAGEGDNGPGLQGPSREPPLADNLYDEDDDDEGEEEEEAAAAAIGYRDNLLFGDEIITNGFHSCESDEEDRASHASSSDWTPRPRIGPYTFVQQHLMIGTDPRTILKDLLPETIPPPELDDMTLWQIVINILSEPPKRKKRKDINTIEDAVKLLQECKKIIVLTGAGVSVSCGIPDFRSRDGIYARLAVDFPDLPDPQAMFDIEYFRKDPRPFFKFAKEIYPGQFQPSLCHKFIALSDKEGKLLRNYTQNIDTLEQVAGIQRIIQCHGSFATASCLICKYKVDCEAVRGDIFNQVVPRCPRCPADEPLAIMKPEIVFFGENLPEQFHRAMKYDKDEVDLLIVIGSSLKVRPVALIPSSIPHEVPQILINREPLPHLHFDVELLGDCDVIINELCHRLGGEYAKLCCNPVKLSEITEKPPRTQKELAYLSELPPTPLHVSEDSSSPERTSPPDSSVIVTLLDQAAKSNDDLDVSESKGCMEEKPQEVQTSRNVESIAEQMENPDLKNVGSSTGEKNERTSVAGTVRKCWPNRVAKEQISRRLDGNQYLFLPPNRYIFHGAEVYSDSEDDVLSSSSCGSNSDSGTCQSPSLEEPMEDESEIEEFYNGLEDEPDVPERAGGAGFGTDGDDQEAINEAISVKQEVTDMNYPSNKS
Observable: pKi
Remember the convention: pKi equals -log10 of concentration in molar.

Given COC(=O)[C@H](C)NC(=O)[C@H](C)NC(=O)[C@H](CCCCNC(C)=S)NC(=O)c1ccc([N+](=O)[O-])cc1 [compound 1] , respond with its pKi. 6.21

###

Target or system: UniProt P06700
Sequence (P06700 whole entry): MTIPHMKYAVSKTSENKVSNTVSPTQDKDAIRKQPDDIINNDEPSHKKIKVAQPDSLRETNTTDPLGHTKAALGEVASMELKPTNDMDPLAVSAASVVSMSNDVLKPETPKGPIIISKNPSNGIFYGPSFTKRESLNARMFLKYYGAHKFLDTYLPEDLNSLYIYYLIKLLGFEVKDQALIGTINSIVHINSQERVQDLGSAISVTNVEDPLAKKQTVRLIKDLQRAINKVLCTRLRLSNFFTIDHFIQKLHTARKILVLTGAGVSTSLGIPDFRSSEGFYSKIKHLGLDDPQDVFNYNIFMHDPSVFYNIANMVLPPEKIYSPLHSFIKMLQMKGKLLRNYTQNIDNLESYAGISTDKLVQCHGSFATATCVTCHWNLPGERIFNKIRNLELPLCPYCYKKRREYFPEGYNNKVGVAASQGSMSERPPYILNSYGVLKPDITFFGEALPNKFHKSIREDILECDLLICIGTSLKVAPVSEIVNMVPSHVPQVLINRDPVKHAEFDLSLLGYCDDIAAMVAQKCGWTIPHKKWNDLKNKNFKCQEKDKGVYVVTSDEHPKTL
Observable: pIC50
Remember the convention: pIC50 equals -log10 of concentration in molar.

Tell me its pIC50 on UniProt P06700: "COC(=O)[C@H](C)NC(=O)[C@H](C)NC(=O)[C@H](CCCCNC(C)=S)NC(=O)c1ccc([N+](=O)[O-])cc1" 4.71
